# key: entry, value: CLint(mic)
# Assay Method Text: In vitro stability in liver microsomes, beagle dogs
# Assay type: in vitro ADME
# Condition Info: 1 μM, 0.5 mg/mL

# Compound, Experimental Endpoint, Val
measured = [
    ("C=C(F)C(=O)N1CCN(c2nc(OCC3CCCN3C)nc3c2COC(c2c(F)c(N)cc(C)c2C(F)(F)F)C3)CC1CC#N.Cl (single isomer, unassigned) [Compound 8B hydrochloride]", "CLint(mic)", "< 9.6 µL/min/mg"),
]

Form field CLint(mic), entry C=C(F)C(=O)N1CCN(c2nc(OC[C@@]34CCCN3C[C@H](F)C4)nc3c2COC(c2c(F)c(N)cc(C)c2C(F)(F)F)C3)C[C@@H]1CC#N (some centres unmarked) [Compound 17] : < 9.6 µL/min/mg
